Ref: ChEMBL document CHEMBL4476883

Provide the recorded pIC50 for the entries that follow.
Experiment: Reduction in mature collagen deposition levels in human cardiac fibroblasts incubated for 24 to 48 hrs by immunostaining based assay
Type: functional
pIC50: −log10 of the molar value.

Tell me the measured pIC50 of `CCCCC[C@@H](C(=O)NCNC(=O)c1cccc(-c2cc(C(=O)O)cc(S(N)(=O)=O)c2)n1)[C@@H](CC)N(O)C=O` , please.
> 5.80

Consider next the molecule `CCCCC[C@@H](C(=O)NCNC(=O)c1cccc(-c2ccc(CC(=O)N[C@@H](CC(=O)O)C(=O)O)c(OCC)c2)n1)[C@@H](CC)N(O)C=O` in the same way.
> 5.80

Consider next the molecule `CCCCC[C@@H](C(=O)NCNC(=O)c1cccc(-c2ccc(C(=O)N[C@@H](CC(=O)O)C(=O)O)c(OCC)c2)n1)[C@@H](CC)N(O)C=O` in the same way.
> 5.80

Consider next the molecule `CCCCC[C@@H](C(=O)NCNC(=O)c1cccc(-c2ccc(CC(=O)O)c(OCC)c2)c1)[C@@H](CC)N(O)C=O` in the same way.
> 5.80

Consider next the molecule `CCCCC[C@@H](C(=O)NCNC(=O)c1ccnc(-c2ccc(C(=O)O)c(OCC)c2)n1)[C@@H](CC)N(O)C=O` in the same way.
> 5.80

Consider next the molecule `CCCCC[C@@H](C(=O)NCNC(=O)c1ccnc(-c2ccc(P(=O)(O)O)c(OCC)c2)n1)[C@@H](CC)N(O)C=O` in the same way.
> 5.80

###

Target: Bone morphogenetic protein 1 (Homo sapiens, UniProt P13497)
Sequence (P13497 whole entry): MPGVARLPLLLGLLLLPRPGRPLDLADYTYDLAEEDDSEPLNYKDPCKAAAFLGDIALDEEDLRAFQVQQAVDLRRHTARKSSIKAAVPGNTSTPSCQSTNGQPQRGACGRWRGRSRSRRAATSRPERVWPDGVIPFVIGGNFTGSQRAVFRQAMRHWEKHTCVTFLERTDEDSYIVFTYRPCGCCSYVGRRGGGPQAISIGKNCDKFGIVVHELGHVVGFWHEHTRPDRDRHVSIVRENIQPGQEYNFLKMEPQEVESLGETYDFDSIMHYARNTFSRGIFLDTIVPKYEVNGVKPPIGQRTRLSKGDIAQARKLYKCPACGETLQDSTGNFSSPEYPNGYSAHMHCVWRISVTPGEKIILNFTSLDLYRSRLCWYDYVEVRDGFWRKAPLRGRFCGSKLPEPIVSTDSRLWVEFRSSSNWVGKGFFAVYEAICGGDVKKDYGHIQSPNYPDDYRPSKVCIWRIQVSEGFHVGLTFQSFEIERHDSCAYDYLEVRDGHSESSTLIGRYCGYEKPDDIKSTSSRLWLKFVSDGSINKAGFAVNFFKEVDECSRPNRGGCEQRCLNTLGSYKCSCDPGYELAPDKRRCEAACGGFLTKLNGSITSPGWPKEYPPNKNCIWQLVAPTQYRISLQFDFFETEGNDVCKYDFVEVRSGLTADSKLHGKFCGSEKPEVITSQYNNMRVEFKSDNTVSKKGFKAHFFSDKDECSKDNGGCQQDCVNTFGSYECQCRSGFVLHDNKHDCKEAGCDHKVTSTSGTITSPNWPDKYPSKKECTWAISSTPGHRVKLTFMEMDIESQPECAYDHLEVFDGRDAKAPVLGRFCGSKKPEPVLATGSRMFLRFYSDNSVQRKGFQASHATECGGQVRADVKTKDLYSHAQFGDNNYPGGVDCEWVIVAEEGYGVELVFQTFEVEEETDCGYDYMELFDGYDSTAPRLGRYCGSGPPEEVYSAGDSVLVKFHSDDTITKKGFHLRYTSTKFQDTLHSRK
Assay: Inhibition of C-terminal FLAG-6x-His epitope tagged and N-terminal human RAGE signal sequence tagged human BMP1 (23 to 721 amino acids) expressed in CHO-E1A cells pre-incubated for 10 mins before promyostatin peptide substrate addition and measured after 60 mins using 0.5 nM BMP1 by FRET based assay
Type: cell-based
value-kind: IC50

Tell me the measured IC50 of `CCCCC[C@H](CN(O)C=O)C(=O)NCNC(=O)c1cccc(-c2nc(C)c(C)o2)c1` , please.
< 0.126 µM

Consider next the molecule `O=CN(O)C[C@@H](CC1CCCC1)C(=O)NCNC(=O)c1cccc(-c2cccc(O)c2)c1` in the same way.
< 0.126 µM

Consider next the molecule `CCCCC[C@@H](C(=O)NCNC(=O)c1ccnc(-c2ccc(C(=O)O)c(OCC)c2)n1)[C@@H](CC)N(O)C=O` in the same way.
< 0.126 µM

Consider next the molecule `CCCCC[C@H](CN(O)C=O)C(=O)NCNC(=O)c1cccc(-c2ccc(N(C)C)cc2)c1` in the same way.
< 0.126 µM

Consider next the molecule `CCCCC[C@@H](C(=O)NCNC(=O)c1cccc(-c2ccc(C(=O)N[C@H](CC(=O)O)C(=O)O)cc2)n1)[C@@H](CC)N(O)C=O` in the same way.
< 0.126 µM

Consider next the molecule `CCCCC[C@H](CN(O)C=O)C(=O)NCNC(=O)c1cccc(-c2cccc(OC)n2)n1` in the same way.
< 0.126 µM

Consider next the molecule `CCCCC[C@H](CN(O)C=O)C(=O)NCNC(=O)c1cccc(-c2cccc(OC)c2)n1` in the same way.
< 0.126 µM

Consider next the molecule `CCCCC[C@H](CN(O)C=O)C(=O)NCNC(=O)c1cccc(-c2cccc(OC)c2F)n1` in the same way.
< 0.126 µM

Consider next the molecule `O=CN(O)C[C@@H](CC1CCCC1)C(=O)NCNC(=O)c1cccc(-c2cccc(OC(F)(F)F)c2)c1` in the same way.
< 0.126 µM

Consider next the molecule `CCCCC[C@@H](C(=O)NCNC(=O)c1cccc(-c2ccc(C(=O)O)c(OCC)c2)n1)[C@@H](CC)N(O)C=O` in the same way.
< 0.126 µM

Consider next the molecule `CCCCC[C@H](CN(O)C=O)C(=O)NCNC(=O)c1cccc(-n2cc(C)cn2)c1` in the same way.
< 0.126 µM

Consider next the molecule `CCCCC[C@@H](C(=O)NCNC(=O)c1cccc(-c2ccc(C(=O)N[C@@H](CC(=O)O)C(=O)O)cc2)n1)[C@@H](CC)N(O)C=O` in the same way.
< 0.126 µM

Consider next the molecule `CCCCC[C@@H](C(=O)NCNC(=O)c1cccc(-c2ccc(C(=O)NCP(=O)(O)O)cc2)n1)[C@@H](CC)N(O)C=O` in the same way.
< 0.126 µM

Consider next the molecule `CCCCC[C@@H](C(=O)NCNC(=O)c1cccc(-c2cc(OCC)cc(P(=O)(O)O)c2)c1)[C@@H](CC)N(O)C=O` in the same way.
< 0.126 µM

Consider next the molecule `O=CN(O)C[C@@H](CCc1ccccc1)C(=O)NCNC(=O)c1cccc(-c2cccc(B(O)O)c2)c1` in the same way.
< 0.126 µM

Consider next the molecule `CCCCC[C@@H](C(=O)NCNC(=O)c1cccc(-c2ccc(C(=O)N[C@@H](CC(=O)O)C(=O)O)c(OCC(=O)O)c2)c1)[C@@H](CC)N(O)C=O` in the same way.
< 0.126 µM

###

Molecular target: Tolloid-like protein 1 (Homo sapiens, UniProt O43897, I156V/N221S/V284A)
Sequence (O43897 148-1013 I156V/N221S/V284A limits assumed): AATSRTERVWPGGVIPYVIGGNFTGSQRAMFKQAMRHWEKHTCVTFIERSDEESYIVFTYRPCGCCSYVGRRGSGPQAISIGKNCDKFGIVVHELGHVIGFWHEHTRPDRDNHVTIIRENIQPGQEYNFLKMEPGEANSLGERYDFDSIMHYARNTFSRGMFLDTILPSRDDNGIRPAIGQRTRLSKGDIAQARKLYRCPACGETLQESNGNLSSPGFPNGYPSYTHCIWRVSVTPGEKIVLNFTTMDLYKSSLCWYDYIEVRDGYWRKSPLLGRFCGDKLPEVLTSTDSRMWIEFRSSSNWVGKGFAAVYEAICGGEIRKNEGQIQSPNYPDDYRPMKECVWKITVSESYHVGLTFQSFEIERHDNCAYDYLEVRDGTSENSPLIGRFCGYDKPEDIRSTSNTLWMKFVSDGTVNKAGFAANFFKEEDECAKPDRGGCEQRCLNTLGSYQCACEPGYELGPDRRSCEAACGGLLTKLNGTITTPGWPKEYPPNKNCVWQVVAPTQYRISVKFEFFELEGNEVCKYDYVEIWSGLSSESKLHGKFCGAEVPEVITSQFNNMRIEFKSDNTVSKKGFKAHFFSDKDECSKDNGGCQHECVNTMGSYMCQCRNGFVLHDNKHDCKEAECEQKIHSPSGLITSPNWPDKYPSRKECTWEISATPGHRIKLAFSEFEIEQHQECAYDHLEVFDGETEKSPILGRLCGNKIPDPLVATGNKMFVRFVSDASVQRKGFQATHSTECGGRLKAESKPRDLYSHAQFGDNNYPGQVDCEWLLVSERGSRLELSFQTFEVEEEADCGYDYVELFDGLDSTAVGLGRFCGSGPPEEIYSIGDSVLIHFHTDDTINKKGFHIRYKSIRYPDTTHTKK
Test: Inhibition of recombinant human TLL1 I156V/N221S/V284A mutant expressed in CHOE1A cells pre-incubated for 10 mins before promyostatin peptide substrate addition and measured after 60 mins by FRET based assay
value-kind: IC50

Tell me the measured IC50 of `CCCCC[C@@H](C(=O)NCNC(=O)c1cccc(-c2ccc(C(=O)N[C@@H](CCC(=O)O)C(=O)O)c(OCC)c2)n1)[C@@H](CC)N(O)C=O` , please.
< 398 nM

Consider next the compound `CCCCC[C@H](CN(O)C=O)C(=O)NCNC(=O)c1cccc(-c2cccc(C(N)=O)c2)c1` in the same way.
< 398 nM

Consider next the compound `CCCCC[C@H](CN(O)C=O)C(=O)NCNC(=O)c1cccc(-c2cncc(OC)c2)c1` in the same way.
< 398 nM

Consider next the compound `CCCCC[C@@H](C(=O)NCNC(=O)c1cccc(-c2ccc(C(=O)NCP(=O)(O)O)c(C)c2)n1)[C@@H](CC)N(O)C=O` in the same way.
< 398 nM

###

Molecular target: Bone morphogenetic protein 1 (Homo sapiens, UniProt P13497)
Assay: Inhibition of C-terminal FLAG-6x-His epitope tagged and N-terminal human RAGE signal sequence tagged human BMP1 (23 to 721 amino acids) expressed in CHO-E1A cells pre-incubated for 10 mins before promyostatin peptide substrate addition and measured after 60 mins using 0.5 nM BMP1 by FRET based assay
Assay type: cell-based
pIC50: −log10 of the molar value.
value-kind: pIC50

Notebook entry, Bone morphogenetic protein 1 (Homo sapiens, UniProt P13497) assay: pIC50 of `CCCCC[C@@H](C(=O)NCNC(=O)c1cccc(-c2ccc(C(=O)N[C@@H](CC(=O)O)C(=O)O)c(OCC)c2)c1)[C@@H](CC)N(O)C=O` = ?
> 6.90

Consider next the compound `CCCCC[C@@H](C(=O)NCNC(=O)c1cccc(-c2ccc(CC(=O)O)c(OCC)c2)c1)[C@@H](CC)N(O)C=O` in the same way.
> 6.90

Consider next the compound `CCCCC[C@@H](C(=O)NCNC(=O)c1cccc(-c2ccc(C(=O)O)cc2C)n1)[C@@H](CC)N(O)C=O` in the same way.
> 6.90

Consider next the compound `CCCCC[C@@H](C(=O)NCNC(=O)c1cccc(-c2ccc(C(=O)N(CC(=O)O)CC(=O)O)c(OCC)c2)n1)[C@@H](CC)N(O)C=O` in the same way.
> 6.90

Consider next the compound `CCCCC[C@@H](C(=O)NCNC(=O)c1ccnc(-c2ccc(P(=O)(O)O)c(OCC)c2)n1)[C@@H](CC)N(O)C=O` in the same way.
> 6.90

Consider next the compound `CCOc1cccc(-c2cccc(C(=O)NCNC(=O)[C@H](CC3CCCC3)CN(O)C=O)c2)c1` in the same way.
> 6.90

Consider next the compound `CCCCC[C@@H](C(=O)NCNC(=O)c1cccc(-c2cc(OCC)cc(C(=O)N[C@@H](CC(=O)O)C(=O)O)c2)c1)[C@@H](CC)N(O)C=O` in the same way.
> 6.90

Consider next the compound `CCCCC[C@@H](C(=O)NCNC(=O)c1cccc(-c2ccc(C(=O)N[C@@H](CCC(=O)O)C(=O)O)cc2)n1)[C@@H](CC)N(O)C=O` in the same way.
> 6.90

Consider next the compound `CCCCC[C@H](CN(O)C=O)C(=O)NCNC(=O)c1cccc(-c2cccc(C(N)=O)c2)c1` in the same way.
> 6.90

Consider next the compound `CCOc1cc(-c2cccc(C(=O)NCNC(=O)[C@H](CCc3ccccc3)[C@@H](CC)N(O)C=O)n2)ccc1C(=O)O` in the same way.
> 6.90

Consider next the compound `O=CN(O)C[C@@H](CC1CCCC1)C(=O)NCNC(=O)c1cccc(-c2ccc(C(F)(F)F)cc2)c1` in the same way.
> 6.90

Consider next the compound `CCCCC[C@@H](C(=O)NCNC(=O)c1cccc(-c2ccc(C(=O)O)c(OCC)c2)c1)[C@@H](CC)N(O)C=O` in the same way.
> 6.90

Consider next the compound `CCCCC[C@@H](C(=O)NCNC(=O)c1cccc(-c2ccc(C(=O)N[C@@H](CC(=O)O)C(=O)O)c(Cl)c2)n1)[C@@H](CC)N(O)C=O` in the same way.
> 6.90

Consider next the compound `O=CN(O)C[C@@H](CCc1ccccc1)C(=O)NCNC(=O)c1cccc(-c2ccccc2)n1` in the same way.
> 6.90

Consider next the compound `CCCCC[C@H](CN(O)C=O)C(=O)NCNC(=O)c1cccc(-c2nnn[nH]2)c1` in the same way.
> 6.90

Consider next the compound `CCCCC[C@H](CN(O)C=O)C(=O)NCNC(=O)c1cccc(-c2cccc(S(C)(=O)=O)c2)c1` in the same way.
> 6.90
